# EXPERIMENTAL TARGET: UniProtKB Q99500
# Sequence (Q99500 whole entry): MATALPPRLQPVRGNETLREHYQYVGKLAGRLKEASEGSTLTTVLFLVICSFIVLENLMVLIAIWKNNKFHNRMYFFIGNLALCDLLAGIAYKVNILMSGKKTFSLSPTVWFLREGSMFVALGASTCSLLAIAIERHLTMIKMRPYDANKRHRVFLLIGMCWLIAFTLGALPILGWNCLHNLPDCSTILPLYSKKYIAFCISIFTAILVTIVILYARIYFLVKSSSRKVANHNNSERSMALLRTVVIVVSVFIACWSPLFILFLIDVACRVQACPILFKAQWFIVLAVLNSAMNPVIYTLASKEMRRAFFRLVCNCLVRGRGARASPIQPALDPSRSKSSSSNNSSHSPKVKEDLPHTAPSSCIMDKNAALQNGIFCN
# ASSAY TEXT: Agonist activity at human S1P3 receptor expressed in HEK293T cells assessed as stimulation of [35S]GTPgammaS binding
ASSAY METRIC: EC50

Known EC50 results, listed for orientation:
CHEMICAL SMILES | EC50
CCCCCCCCOc1ccc(NC(=O)[C@@H](N)CC(=O)O)cc1 | 1.8 µM
CCCCCCCCOc1ccc(NC(=O)[C@@H](N)CC(=O)O)cc1C(F)(F)F | > 3 µM
C[C@](N)(CC(=O)O)c1nc(-c2ccc(OCc3ccc(-c4ccccc4)cc3)c(C(F)(F)F)c2)c[nH]1 | > 3 µM

// sample N[C@@H](CC(=O)O)c1nc(-c2ccc(OCc3ccc(-c4ccccc4)cc3)c(C(F)(F)F)c2)c[nH]1 , its EC50 was > 3 µM

Looking up CCCCCCCCOc1ccc(NC(=O)[C@@](C)(N)CC(=O)O)cc1C(F)(F)F , I found its EC50 recorded as > 3 µM

Reference source for all entries: ChEMBL document CHEMBL2311443
